Test: yeast display, Sf9 membrane polyspecificity reagent, FACS + sequencing; frameworks hold sequencing errors
measured_attribute: polyreactivity (PSR sort gate)

QVQLVESGGGLVQAGGSLRLSCAASGRTFNGNTMGWYRQAPGKERQLVAAISRNGGRTYYADSVKGRFTISRDNAKNTVYLQMNSLKPEDTAVYYCATVYRPGGVYGYWGQGTQVTVSS :: high polyreactivity
QVQLVESGGGLVQAGGSLRLSCAASGFTFSKYDMGWYRQATGKERELVAAISRSAGSTYYADSVKGRFTISRDHAKNTVYLQMNSLKPEDTAVYYCARDNPRSPSGYNYWGQGTQVTVSS :: high polyreactivity
QVQLVESGGGLVQAGGSLRLSCAASGSIFDFYAMGWYRQAPGKERESVAAISWSGGSTYADSVKGRFTISRDNAKNTVYLQMNSLKPEDTAVYYCAARWGTYWGVLGGDPDIDYDYWGQGTQVTVSS :: low polyreactivity
QVQLVETGGGLVQAGGSLRLSCAASGFTFRPYVMGWYRQPPGKERELVAGITWDGDSTYYADSVKGRFTISRDNPKNTVYLQMNSLKPEDTAVYYCAAEDADWVSQYYYWGQGTQVTVSS :: high polyreactivity

// polyreactivity (PSR sort gate) lookup, sequence = QVQLVESGGGLVQAGGSLRLSCAASGSIVNYNDMGCYRQAPGKERELVAAIDSSGTSTYYADSVKGRFTISRDNAKNTVYLQMNSLKPEDTAVYYCNADSSLGFGYWGQGTQVTVSS , result: low polyreactivity

---

Assay: yeast display, Sf9 membrane polyspecificity reagent, FACS + sequencing; frameworks hold sequencing errors
measured_attribute: polyreactivity (PSR sort gate)

Solved entries:
QVQLEESGGGLGQAGGSLRLSCAASGRIFRDYAMGWSRQAPGKERELVAAITSGGTTYADSVKGRVTISRDNAKNTVYLQLNSLKPEDTAVYYCNVAWIWGKFDYWGQGTQVTVSS :: high polyreactivity
QVQLVESGGGLVQAGGSLRLSCAASGFLFRYYARGWYRQAPGKERELVADISQNGDSTYYADSVKGRFTISRDTAKITVYLQMNCLNPDDTAVYYCNADNDPWPYFDGIFSVDMDYWGQGTQVTVSS :: low polyreactivity
QVQHVESGGGLVQAGGSLRLSCAASGSTFRPYAMGWYRQAPGKERELVARITVSGDSTYYADSVKGRFTISRDNAKNTVYLQMNSLKPEDTAVYYCAREFDYSLSGFDYWGQGTQVTVSS :: low polyreactivity
QLQLVESGRGLVQAGGSLRLSCAASGIIFYYNAMGWYRQAPGKERELVARITWRAGSTYYADSVKGRFTISRDNAKNTVYLQMNSLKPEDTAVYYCAARFTTTGPRGYYYWGQGTQVTVSS :: high polyreactivity

Now for another entry.
// polyreactivity (PSR sort gate) lookup, sequence = QVQLVESGGVLVQAVGSLRLSCAASGSIFHDYALGWYRQAPGKEREMVAAISSGSGSTSYADSVKGRFTISRDNAKNTVYLQMNSLKPEATAVYYCNADADAVPFAFRGSYDYWGQGTQVTVSS , result: low polyreactivity

---

Assay: yeast display, Sf9 membrane polyspecificity reagent, FACS + sequencing; frameworks hold sequencing errors
measured_attribute: polyreactivity (PSR sort gate)

Solved entries:
QVQLVESGGGLVQAGGSLRLSCAASGRTFSYNAMGWYRQAPGKERELVAGISSRGGSTYYADSVKGRFTISRDNAKNTVYLQMNSLKPEDTAVYYCNALGRGKDSYSGVDYWGQGTQVTVSS :: high polyreactivity
QVQLVESGGGLVQAGGSLRLSCAASGYIFDVYDMGWYRQAPGKERELVAAITDYADSVKGRFTISRDNAKNTVYLQMNSLKPEDTAVYYCAADTDVLKGTTGFEYWGQGTQVTVSS :: low polyreactivity
QVQLVESGAGLVQAGGSLRLSCAASGSILTAYAMGWYRQAPVKERELVAAISRGDITKYADSVKGRFTISRDNAKNTVYLQMNSLQPEDTAVYYCAARVPRYSDSTRGRADYYWGQVTQVTVSS :: high polyreactivity
QVQLVESGGGLVQAGGSLRLSCAASGRIFKSYAMGWYRQAPGIERELVAAIRSGGSTYYADSVKGRFTISRDNAKNTVYLQMNSLKPEYTAVYYCNRVTRTWKVTYHSWGQGTQVTVSS :: high polyreactivity

// polyreactivity (PSR sort gate) lookup, sequence = QVQLVESGGGLVQAGGSLRLSCAASGSIFGAYTMGWYRPAPGKERELVAALSIGGSTNYADSVKGRFTISRDNAKNTVYLQMNSLKPEDTAVYYCNAEPHREDWWWAIGLYDYWGQGTQVTVSS , result: high polyreactivity

---

Experiment: yeast display, Sf9 membrane polyspecificity reagent, FACS + sequencing; frameworks hold sequencing errors
measured_attribute: polyreactivity (PSR sort gate)

Solved entries:
QVQLVESGGGLVQAGGSLRLSCAASGRTFRVYAMGWYRQAPGKERELVAAISWSGGTTYYADSVKGRFTISRDNAKNTVYLQMNSLKPEDSAVYYCARRSRGSSYNYWGQGTQVTVSS :: high polyreactivity
QVQLVESGGGLVQAGGSLRLSCAASGRIFYYYAMGWYRQAPGKERELVAAITWSGGSTYYADSVKGRFTISRDNAKNTVYLQMNSLKPEDTAVYYCAAEWAYWDEWSGDYYLLGYWGQGTQVTVSS :: high polyreactivity
QVQLVESGGGLVQAGGSLRLSCAASGRSFVLYTMGWSRQAPGKEREWVAAISGSGGRTYYADSVKGRFTISRDHAKNTVNLQMNSLKPEDTAVYYCAAYGQGLPLYGYWGPGTQVTVSS :: high polyreactivity
QVQLVESGGGLVQAGGSLRLSCAASGSTISYYAMGWYRQAPGKERELVAGISGSTGTTYYADSVKGRFTISRDNAKNTVYLQMNSLKPEDTAVYYCAKLFPVARPQYGYWGQGTQVTVSS :: low polyreactivity

// polyreactivity (PSR sort gate) lookup, sequence = QVQLVESGGGLVQAGGSLRLSCAASGSTIPYYAMGWYRQAPGKERELVARIRWNGDSTFYADSVKGRFTISRDNAKNTVYLQMNSLKTEDSAVYYCAAYGKRLGERLNYYYWGQGTQVTVSS , result: high polyreactivity

// polyreactivity (PSR sort gate) lookup, sequence = QVQLVESGGGLVQAGGSLRISCAASGFTFKRYAMGWYRQAPGKERELVAAITWRGGSTYYADSVKGRFTISRDNAKNTVYLQMNSLKPEDTAVYYCAAYSYPYWQKRPYDYWGQGTQVTVSS , result: high polyreactivity

// polyreactivity (PSR sort gate) lookup, sequence = HVQLQESGGGLVQAGGSLRLSCGASGNISYSRSMGCYRQAPGKERELVAAIDRGAITYYADSVKGRFTISRDNAKNTVYLQIYSLKPEDTAVYYCAAVYHDRWDHRYWGQGTQVTVCS , result: high polyreactivity

// polyreactivity (PSR sort gate) lookup, sequence = QVQLVESGGGLVQAGGSLRLSCAASGYILGKNVMGWYRPAPGKERELVAAISSGGRTYYADSVKGRFTISRDNAKNTVYLQMNSLKPEDTAVYYCAPDLKYYGYDYWGQGTQVTVSS , result: high polyreactivity

// polyreactivity (PSR sort gate) lookup, sequence = QVQLVESGGGLVQAGGSLRLSCAASGLTFYLYAMGWYRQAPGKERELVAAITSAGITYADSVKGRFTISRDNAKNTVYLQMNSLKPEDTAVYYCASSIDCGKCLGRRYDYWGQGSQVTVSS , result: low polyreactivity

// polyreactivity (PSR sort gate) lookup, sequence = QVQHVESGGGLVQAGGSLRLSCAASGLTFTAYVMGWYRQAPGKERELVAAIRISGGSTYYADSVKGRFTISRDNAKNTVYLQMKSLQPADTAVYYCATRHRHVTATDSRIGDYWGQGTQVTVSS , result: low polyreactivity

// polyreactivity (PSR sort gate) lookup, sequence = QVQLVESGGGLVQAGGSLRLSSAASGSIFLYNAMGWYRQAPGKERELVAAISGSGGRTNYADSVKGRFTISRDHAKNTVYLQMNSLKPEVTAVYYCAAGYHVFRLGYARIPLYDYWGQGTQVTVSS , result: low polyreactivity

---

Assay: yeast display, Sf9 membrane polyspecificity reagent, FACS + sequencing; frameworks hold sequencing errors
measured_attribute: polyreactivity (PSR sort gate)

Solved entries:
QVQLVESGGGLVQAGGSLRLSCAASGSTFAKNTMGWYRQAPGKERELVAAISTSGGSTYYADSVKVRFTISRDNAKNTVYLQMNSLKPEDTAVYYCAARAFQYYRAMDYWGQGTQVTVSS :: low polyreactivity
QVQLVESGGGLVQAGGSLRLSCAASGFIFSGYAMGWYRQAPGKERELVATISGSGGSTYYADSVKGRFTISRDNAKNTVYLQMNSLKPEDTAVYYCNALYASSVRHKVTYDYWGQGTQVTVSS :: high polyreactivity
QVQLVESGGGLVQAGGSLRLSCDASGFTFARYNMGWYRQAPGKERELVAAISSRGSSTYYADSVKGRFTISRDNAKNTVYLQMNSLKAEDTAVYYCAAPPRYGYDYWGQGTQVTVSS :: high polyreactivity
QVQLVESGGGLVQAGGSLRLSCAASGSIFGYYAMGWYRQAPGKERELVAAISTSGGRTYYADSVKGRFTISRDNAKNTVYFQMNSLKPEDTAVYYCAARVYSTSVVAYYYWGQGTQVTVSS :: high polyreactivity

// polyreactivity (PSR sort gate) lookup, sequence = QVQLVESGGGLVQAGGSLRLSCAASGSISPQNVMGWYRQAPGKERELVAAITWTGTSTYADSVKGRFTISRDNAKNTVYLQMNSLKPEDTAVYYCAARYYAPRWFRYDYWGQGTQVTVSS , result: low polyreactivity

// polyreactivity (PSR sort gate) lookup, sequence = QVQLVESGGGLVQAGGSLRLSCAASGSIFYSNAMGLSRQAPGKEREWVATITSGDSTNYADSVKGRFTISRDNAKNTVYLQMNSLKPEDTAVYYCAADSSLYEWFDWPWERGQSVESWGQGTQVTVSS , result: low polyreactivity

// polyreactivity (PSR sort gate) lookup, sequence = QVQLVESGGGLVQAGGSLRLSCAASGSTIWYYVMGWYRAAPGKERELVAAIRSNDGSTYYADSVKGRFTISRDNAKNTDYLQLNRLKPEDTAVYYCAADDWVYAQEYDYWGQGTQVTVSS , result: low polyreactivity

// polyreactivity (PSR sort gate) lookup, sequence = QVQLEESGGGLVQAGGSLRLSCAASGGIFYGYAMGWNRQAPGIERELVAAISDSGGSTYYADSVKGRFTISRDNAKNTVFLQLNSLNPEDTAVYYCATDARVGGYVSEGDFWGQGTQVTVSW , result: low polyreactivity

// polyreactivity (PSR sort gate) lookup, sequence = QVQLVESGGGLVQAGGSLRLSCAASGRIFFYNAMGWYRQAHGKERELVAAISARGDRTYYADSVKGRFTISRDNAKNTVYLQMNSLKPEDTAVYYCAADYYNYRYDYWGQGTQVTVSS , result: high polyreactivity

// polyreactivity (PSR sort gate) lookup, sequence = QLQLVESGGGLVQAGGSLRLSCAASGSTFGPYTMGWYRQAPGKERELVATISSGGSTYYADSVKGRFTISRDNAKNTVYLQMNSLKPEDTAVYYCAARYWSIYDYWGQGTQVTVSS , result: low polyreactivity

// polyreactivity (PSR sort gate) lookup, sequence = QVQLEESGGGLVQAGGSLRLSCAASGSTFAPNAMGWYRAAPGKEMELVASIRRGGSTHYADSVKGRFTISRDNAKNTVYFQMNSLQPEDTAVYYCAAEFRDVSSNGYDFLGQGTQVTVSS , result: low polyreactivity
